- Test system: PSMA^+ PC-3 PIP tumors
- experiment description: MicroPET/CT imaging of mice transplanted with prostate cancer cell lines
- Format: in vivo, nude mouse
- reported conditions: 270 min after injection
value kind: intake of mouse organ: Liver (% ID/g)

compound	assayed target	measured value
O=C(O)CCC(NC(=O)NC(CCCCN(CC(=O)O)C(=O)COCCOCCNC(=O)CN1CCN2CCN3CCN(CC1)CC(=O)[O][68Ga]([O]C(=O)C2)[O]C(=O)C3)C(=O)O)C(=O)O (stereo not shown) [[^68Ga]1e]	PSMA^+ PC-3 PIP tumors	0.03
O=C(O)CCC(NC(=O)NC(CCCCN(CC(=O)O)C(=O)COCCNC(=O)C(CCCCNC(=O)CCCc1ccc(I)cc1)NC(=O)CN1CCN2CCN3CCN(CC1)CC(=O)[O][68Ga]([O]C(=O)C2)[O]C(=O)C3)C(=O)O)C(=O)O (stereo not shown) [[^68Ga]1k]	PSMA^+ PC-3 PIP tumors	3.60
O=C(O)CCC(NC(=O)NC(CCCCN(CC(=O)O)C(=O)COCCOCCNC(=O)C(CCCCNC(=O)CCCc1ccc(I)cc1)NC(=O)CN1CCN2CCN3CCN(CC1)CC(=O)[O][68Ga]([O]C(=O)C2)[O]C(=O)C3)C(=O)O)C(=O)O (stereo not shown) [[^68Ga]1h]	PSMA^+ PC-3 PIP tumors	3.00
Cc1ccc(CCCC(=O)NCCCCC(NC(=O)CN2CCN3CCN4CCN(CC2)CC(=O)[O][68Ga]([O]C(=O)C3)[O]C(=O)C4)C(=O)NCCOCCOCC(=O)N(CCCCC(NC(=O)NC(CCC(=O)O)C(=O)O)C(=O)O)CC(=O)O)cc1 (stereo not shown) [[^68Ga]1g]	PSMA^+ PC-3 PIP tumors	0.22
